The entries below come with measured Ki values attached.
ASSAYED_TARGET: TYK2 (Homo sapiens (Human))
Sequence (P29597 whole entry): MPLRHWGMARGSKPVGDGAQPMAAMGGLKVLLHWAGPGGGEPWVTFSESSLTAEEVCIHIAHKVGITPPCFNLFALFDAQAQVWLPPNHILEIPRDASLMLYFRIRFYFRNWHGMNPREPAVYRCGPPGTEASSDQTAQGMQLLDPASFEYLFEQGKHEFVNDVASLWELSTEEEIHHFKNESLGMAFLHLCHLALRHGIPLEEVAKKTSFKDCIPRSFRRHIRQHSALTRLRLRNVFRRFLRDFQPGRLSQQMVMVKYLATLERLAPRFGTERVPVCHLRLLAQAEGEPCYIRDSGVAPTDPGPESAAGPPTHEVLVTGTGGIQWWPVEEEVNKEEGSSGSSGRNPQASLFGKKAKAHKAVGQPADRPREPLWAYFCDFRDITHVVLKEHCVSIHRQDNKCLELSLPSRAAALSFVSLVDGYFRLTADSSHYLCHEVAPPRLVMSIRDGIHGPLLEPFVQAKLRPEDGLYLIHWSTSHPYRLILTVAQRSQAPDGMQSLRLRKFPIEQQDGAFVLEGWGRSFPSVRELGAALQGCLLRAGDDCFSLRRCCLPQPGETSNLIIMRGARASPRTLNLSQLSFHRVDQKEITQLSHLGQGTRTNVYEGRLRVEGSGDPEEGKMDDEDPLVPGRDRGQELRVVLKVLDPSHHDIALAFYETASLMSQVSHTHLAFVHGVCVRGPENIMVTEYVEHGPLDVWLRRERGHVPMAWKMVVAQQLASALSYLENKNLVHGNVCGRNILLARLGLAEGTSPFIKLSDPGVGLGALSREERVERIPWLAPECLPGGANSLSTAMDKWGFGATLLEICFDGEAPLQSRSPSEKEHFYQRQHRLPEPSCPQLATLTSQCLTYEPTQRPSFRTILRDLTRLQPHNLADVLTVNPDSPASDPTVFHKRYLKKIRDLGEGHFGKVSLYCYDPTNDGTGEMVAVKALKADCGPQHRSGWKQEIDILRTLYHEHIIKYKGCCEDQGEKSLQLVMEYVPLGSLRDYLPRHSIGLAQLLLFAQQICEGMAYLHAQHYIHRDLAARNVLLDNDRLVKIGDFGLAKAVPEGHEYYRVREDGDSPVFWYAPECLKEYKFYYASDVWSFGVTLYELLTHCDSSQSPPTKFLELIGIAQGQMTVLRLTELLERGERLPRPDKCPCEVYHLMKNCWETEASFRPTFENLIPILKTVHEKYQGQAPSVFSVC

[
  {
    "COMPOUND": "COC(=O)[C@@H]1COCCN1C(=O)Cc1ccc(Nc2nc(-c3c(F)cccc3F)nc3c2C(=O)NC3)cc1 [Compound I-111]",
    "Ki": "10 to 100 nM"
  },
  {
    "COMPOUND": "C[C@@]1(c2ccc(Nc3nc(-c4c(F)cccc4F)nc4c3C(=O)NC4)cc2)CCN(C2CCOCC2)C1=O [Compound I-125]",
    "Ki": "< 10 nM"
  },
  {
    "COMPOUND": "COc1ccc(Nc2cc(-c3c(F)cccc3F)nc3c2C(=O)NC3)cc1 [Compound I-230]",
    "Ki": "< 10 nM"
  },
  {
    "COMPOUND": "CCNC(=O)[C@H]1C[C@H](Nc2nc(-c3c(F)cccc3F)nc3c2C(=O)NC3)C1 [Compound I-131]",
    "Ki": "> 1000 nM"
  },
  {
    "COMPOUND": "COc1ccc(Nc2cc(-c3c(F)cccc3F)nc3c2C(=O)NC3)nc1OC [Compound I-170]",
    "Ki": "< 10 nM"
  },
  {
    "COMPOUND": "O=C(Cc1ccc(Nc2nc(-c3c(F)cccc3F)nc3c2C(=O)NC3)cc1)NCC1CNC1 [Compound I-72]",
    "Ki": "< 10 nM"
  },
  {
    "COMPOUND": "CN1C(=O)C(C)(c2ccc(Nc3nc(-c4c(F)cccc4F)nc4c3C(=O)NC4)cc2)CC1(C)C (centres unmarked) [Compound I-220]",
    "Ki": "< 10 nM"
  },
  {
    "COMPOUND": "O=C1NCc2nc(-c3c(F)cccc3F)nc(Nc3cnn(CC(=O)N4CCC[C@H]4CO)c3)c21 [Compound I-68]",
    "Ki": "10 to 100 nM"
  }
]

###

Ki values, listed per item
ASSAYED_TARGET: JAK2 (Homo sapiens (Human))
Sequence (O60674 whole entry): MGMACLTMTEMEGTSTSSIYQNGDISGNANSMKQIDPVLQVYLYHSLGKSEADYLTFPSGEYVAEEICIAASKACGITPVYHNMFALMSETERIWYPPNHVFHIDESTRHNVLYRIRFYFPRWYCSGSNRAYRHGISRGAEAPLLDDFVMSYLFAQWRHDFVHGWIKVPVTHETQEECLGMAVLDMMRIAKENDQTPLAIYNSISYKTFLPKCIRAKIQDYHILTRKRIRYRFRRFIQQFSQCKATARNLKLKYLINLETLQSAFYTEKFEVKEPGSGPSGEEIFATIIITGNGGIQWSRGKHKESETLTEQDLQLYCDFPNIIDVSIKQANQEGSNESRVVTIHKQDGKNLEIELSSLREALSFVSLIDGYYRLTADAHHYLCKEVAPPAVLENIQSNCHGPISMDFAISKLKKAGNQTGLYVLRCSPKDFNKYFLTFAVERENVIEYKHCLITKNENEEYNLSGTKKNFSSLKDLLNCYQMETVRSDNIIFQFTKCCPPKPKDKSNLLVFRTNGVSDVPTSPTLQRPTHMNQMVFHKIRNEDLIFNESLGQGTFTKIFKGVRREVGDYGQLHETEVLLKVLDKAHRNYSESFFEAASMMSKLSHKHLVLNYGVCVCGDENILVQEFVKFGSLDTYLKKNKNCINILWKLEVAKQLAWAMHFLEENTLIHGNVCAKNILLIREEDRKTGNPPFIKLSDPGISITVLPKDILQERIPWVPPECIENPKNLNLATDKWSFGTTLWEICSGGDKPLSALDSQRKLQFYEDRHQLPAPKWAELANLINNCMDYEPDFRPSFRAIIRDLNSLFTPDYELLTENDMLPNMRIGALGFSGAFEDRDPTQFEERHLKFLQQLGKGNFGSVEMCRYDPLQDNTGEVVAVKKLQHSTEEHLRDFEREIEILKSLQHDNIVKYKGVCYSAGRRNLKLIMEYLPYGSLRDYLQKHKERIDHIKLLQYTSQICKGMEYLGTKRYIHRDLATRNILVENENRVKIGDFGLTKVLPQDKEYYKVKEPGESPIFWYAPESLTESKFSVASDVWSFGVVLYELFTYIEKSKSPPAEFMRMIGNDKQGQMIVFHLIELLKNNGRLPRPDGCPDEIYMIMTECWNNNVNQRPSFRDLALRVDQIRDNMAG
TEST_DESCRIPTION: JAK2 activity inhibition assay (radioactive kinase assay / Caliper assay)
Assay type: biochemical
TEST_SETTINGS: read-out: JAK2 Ki

[
  {
    "MOLECULE": "C[C@@]1(c2ccc(Nc3nc(-c4c(F)cccc4F)nc4c3C(=O)NC4)cc2)CCN(C2CCOCC2)C1=O",
    "Ki": "10 to 100 nM"
  },
  {
    "MOLECULE": "CCOC(=O)C(C)(C)c1ccc(Nc2nc(-c3c(F)cccc3F)nc3c2C(=O)NC3)cc1",
    "Ki": "100 to 1000 nM"
  },
  {
    "MOLECULE": "O=C(Cc1ccc(Nc2nc(-c3c(F)cccc3F)nc3c2C(=O)NC3)cc1)N[C@@H]1CCCNC1",
    "Ki": "100 to 1000 nM"
  },
  {
    "MOLECULE": "O=C1NCc2nc(-c3c(F)cccc3F)cc(Nc3ccc(N4CCOCC4=O)cn3)c21",
    "Ki": "10 to 100 nM"
  },
  {
    "MOLECULE": "O=C1NCc2nc(-c3c(F)cccc3F)cc(Nc3ccc(N4CC5(COC5)C4)cn3)c21",
    "Ki": "< 10 nM"
  },
  {
    "MOLECULE": "N#Cc1cccc(F)c1-c1cc(Nc2ccc(N3CCOCC3)cn2)c2c(n1)CNC2=O",
    "Ki": "< 10 nM"
  },
  {
    "MOLECULE": "CCC1(c2ccc(Nc3nc(-c4c(F)cccc4F)nc4c3C(=O)NC4)cc2)CCNC1=O (stereo not drawn)",
    "Ki": "10 to 100 nM"
  },
  {
    "MOLECULE": "CC(C)NC(=O)c1ccc(Nc2cc(-c3c(F)cccc3F)nc3c2C(=O)NC3)cc1",
    "Ki": "10 to 100 nM"
  },
  {
    "MOLECULE": "O=C1NCc2nc(-c3c(F)cccc3F)nc(Nc3ccc([C@@H]4CCNC4=O)cc3)c21",
    "Ki": "10 to 100 nM"
  },
  {
    "MOLECULE": "CC1(C)CN(c2ccc(Nc3cc(-c4c(F)cccc4F)nc4c3C(=O)NC4)nc2)CC[C@H]1O",
    "Ki": "10 to 100 nM"
  },
  {
    "MOLECULE": "CCNC(=O)c1ccc(Nc2cc(-c3c(F)cccc3F)nc3c2C(=O)NC3)cn1",
    "Ki": "100 to 1000 nM"
  },
  {
    "MOLECULE": "O=C1NCc2nc(-c3c(F)cccc3F)nc(Nc3ccc(CC(=O)N4CCC[C@H]4CO)cc3)c21",
    "Ki": "100 to 1000 nM"
  },
  {
    "MOLECULE": "CN1CCN(C)[C@@](C)(c2ccc(Nc3nc(-c4c(F)cccc4F)nc4c3C(=O)NC4)cc2)C1=O",
    "Ki": "10 to 100 nM"
  },
  {
    "MOLECULE": "O=C(NC1CCOCC1)c1ccc(Nc2cc(-c3c(F)cccc3F)nc3c2C(=O)NC3)nc1",
    "Ki": "10 to 100 nM"
  },
  {
    "MOLECULE": "CN1C(=O)[C@](C)(c2ccc(Nc3nc(-c4c(F)cccc4F)nc4c3C(=O)NC4)cc2)CC1(C)C",
    "Ki": "10 to 100 nM"
  }
]
